# testedSystem: HA of influenza B virus B/Florida/04/2006 (live virus) (influenza B virus B/Florida/04/2006)
# assayProtocol: cell-based or functional assay
Measured HI titers by item

Worked set:
binder | recordedValue
CR8033 (antibody, V domains shown) VH: EVQLVETGGGLVQPGRSLRLSCAASGFSFDEYTMHWVRQAPGKGLEWVAGINWKGNFMGYADSVQGRFTISRDNGKNSLYLQMNSLRAEDTALYYCAKDRLESSAMDILEGGTFDIWGQGTMVT VL: EIVLTQSPGTLSLSPGERATLSCRASQSVSSSYLAWYQQKPGQAPRLLIYGASTRATGIPARFSGSGSGTDFTLTISRLEPEDLAVYYCQQYGSSPWTFGQGTKVEIK | 0.22 µg/mL
CR8059 (antibody, V domains shown) VH: EVQLVQSGAEVKKPGASVRVSCRASGYIFTESGITWVRQAPGQGLEWMGWISGYSGDTKYAQKLQGRVTMTKDTSTTTAYMELRSLRYDDTAVYYCARDVQYSGSYLGAYYFDYWSPGTLVTVSS VL: SYVLTQPPSASGTPGQRVTISCSGSSSNIGTNYVYWYQQFPGTAPKLLIYRSYQRPSGVPDRFSGSKSGSSASLAISGLQSEDEADYYCATWDDSLNGWVFGGGTKLTVL | > 50 µg/mL

Okay, now this binder:
Q. I would be grateful if you could share the reported HI titers for CR8071 (antibody, V domains shown) VH: QVQLVQSGAEVKKPGASVRVSCRASGYIFTESGITWVRQAPGQGLEWMGWISGYSGDTKYAQKLQGRVTMTKDTSTTTAYMELRSLRYDDTAVYYCARDVQYSGSYLGAYYFDYWSPGTLVTVSS VL: QSVLTQPPSASGTPGQRVTISCSGSSSNIGTNYVYWYQQFPGTAPKLLIYRSYQRPSGVPDRFSGSKSGSSASLAISGLQSEDEADYYCATWDDSLDGWVFGGGTKLTVLR .
A. > 50 µg/mL
